Measured values drawn from ChEMBL document CHEMBL4385605 for this set.

Biological target: Sigma non-opioid intracellular receptor 1 (Homo sapiens)
Sequence (Q99720 whole entry): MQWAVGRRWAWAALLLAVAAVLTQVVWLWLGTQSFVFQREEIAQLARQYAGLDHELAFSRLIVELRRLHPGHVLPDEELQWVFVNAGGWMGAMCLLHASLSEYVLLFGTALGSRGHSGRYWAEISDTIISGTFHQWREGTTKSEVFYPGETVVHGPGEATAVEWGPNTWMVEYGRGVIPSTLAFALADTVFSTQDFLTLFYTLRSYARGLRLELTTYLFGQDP
Assay: Displacement of [3H](+)-pentazocine from sigma 1 receptor in human RPMI8226 cell membranes incubated for 2 hrs under shaking by scintillation counting analysis
Readout Label: Ki (nM)
Give the value in nM but do not write nM after it.

Some solved cases for reference:
[
  {
    "Compound": "COC1Cc2ccccc2[C@]2(CC[C@H](N(C)Cc3ccccc3)CC2)O1 (some centres undefined)",
    "Target System": "Sigma non-opioid intracellular receptor 1 (Homo sapiens)",
    "Measurement Unit": "nM",
    "Ki": 39
  },
  {
    "Compound": "COC1Cc2ccccc2[C@]2(CC[C@@H](N(C)Cc3ccccc3)CC2)O1 (some centres undefined)",
    "Target System": "Sigma non-opioid intracellular receptor 1 (Homo sapiens)",
    "Measurement Unit": "nM",
    "Ki": 40
  },
  {
    "Compound": "COC1Cc2ccccc2[C@]2(CC[C@H](N(C)CC3CCCCC3)CC2)O1 (some centres undefined)",
    "Target System": "Sigma non-opioid intracellular receptor 1 (Homo sapiens)",
    "Measurement Unit": "nM",
    "Ki": 7.3
  }
]

Bench note: what Ki did COC1Cc2ccccc2[C@]2(CC[C@@H](N(C)CC3CCCCC3)CC2)O1 (some centres undefined) show?
6.9
